Test system: SW 982 tumor spheroid viability
testMethodNotes: Anticancer human tumor SW 982 cell line growth inhibition;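 note: spheroids exposed to compound for 7 days before readout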
experimentalSetup: second compound 0.0003 µM; first compound 0.1 µM; stronger effect = lower value; spheroids with HUVEC and MSC
measuredAttribute: viability, T/C (%)
Number in %, nothing else.

Some entries whose results are on file:
compound	viability, T/C [%]
[2H]c1nc(C)nc([2H])c1-c1cc(NC[C@@H](C)c2cccc3c(C(=O)NC)ccnc23)ncn1 + COc1cc2c(cc1O)CCNC21CSC2c3c(OC(C)=O)c(C)c4c(c3C(COC1=O)N1C(O)C3Cc5cc(C)c(OC)c(O)c5C(C21)N3C)OCO4	83.2
Cc1cc(C)c(CNC(=O)c2cc(-c3ccc(CN4CCOCC4)cc3)cc3c2cnn3C2CCCC2)c(=O)[nH]1 + COc1cc2c(cc1O)CCNC21CSC2c3c(OC(C)=O)c(C)c4c(c3C(COC1=O)N1C(O)C3Cc5cc(C)c(OC)c(O)c5C(C21)N3C)OCO4	76
COc1cc(C)[nH]c(=O)c1CN1CCc2c(Cl)cc(C(OC)C3COC3)c(Cl)c2C1=O (stereo unspecified) + COc1cc2c(cc1O)CCNC21CSC2c3c(OC(C)=O)c(C)c4c(c3C(COC1=O)N1C(O)C3Cc5cc(C)c(OC)c(O)c5C(C21)N3C)OCO4	82.9
CC1COCCN1c1cc(-c2ccnn2C)c2ccnc(-c3ccn[nH]3)c2n1 (stereo unspecified) + COc1cc2c(cc1O)CCNC21CSC2c3c(OC(C)=O)c(C)c4c(c3C(COC1=O)N1C(O)C3Cc5cc(C)c(OC)c(O)c5C(C21)N3C)OCO4	16.3
COc1ccc([C@@H](O)c2cc(-c3ncnc4cc(N5CCOCC5)ccc34)c(F)cc2Cl)nn1 + COc1cc2c(cc1O)CCNC21CSC2c3c(OC(C)=O)c(C)c4c(c3C(COC1=O)N1C(O)C3Cc5cc(C)c(OC)c(O)c5C(C21)N3C)OCO4	83.1

INPUT: Returns the measured viability, T/C for the input compound. Input: CC(C)n1c(=O)n(C)c2cnc3cc(F)c(-c4ccc(OCCCN5CCCCC5)nc4)cc3c21 + COc1cc2c(cc1O)CCNC21CSC2c3c(OC(C)=O)c(C)c4c(c3C(COC1=O)N1C(O)C3Cc5cc(C)c(OC)c(O)c5C(C21)N3C)OCO4
OUTPUT: 65.5

* * *

Test system: SW 982 tumor spheroid viability
testMethodNotes: Anticancer human tumor SW 982 cell line growth inhibition; active = viability on the fitted dose curve at most 10% of control; inactive = the rest;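 note: spheroids exposed to compound for 7 days before readout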
experimentalSetup: second compound 0.003 µM; first compound 1 µM; spheroids with HUVEC and MSC
Just give me one of these, please: YES for active, NO for inactive

INPUT: Fill in: this test's call for Cc1cc(C)c(CNC(=O)c2cc(-c3ccc(CN4CCOCC4)cc3)cc3c2cnn3C2CCCC2)c(=O)[nH]1 + CC[C@@]1(O)C(=O)OCc2c1cc1n(c2=O)Cc2cc3c(CN(C)C)c(O)ccc3nc2-1 is ___
OUTPUT: NO

INPUT: Same for CC1COCCN1c1cc(-c2ccnn2C)c2ccnc(-c3ccn[nH]3)c2n1 (stereo not drawn) + CC[C@@]1(O)C(=O)OCc2c1cc1n(c2=O)Cc2cc3c(CN(C)C)c(O)ccc3nc2-1
OUTPUT: NO

INPUT: Repeat for the following compound: COc1ccc([C@@H](O)c2cc(-c3ncnc4cc(N5CCOCC5)ccc34)c(F)cc2Cl)nn1 + COc1cc2c(cc1O)CCNC21CSC2c3c(OC(C)=O)c(C)c4c(c3C(COC1=O)N1C(O)C3Cc5cc(C)c(OC)c(O)c5C(C21)N3C)OCO4
OUTPUT: YES

* * *

Tested on: SW 982 tumor spheroid viability
testMethodNotes: Anticancer human tumor SW 982 cell line growth inhibition;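 note: spheroids exposed to compound for 7 days before readout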
experimentalSetup: second compound 31.6 µM; first compound 0.1 µM; stronger effect = lower value; spheroids with HUVEC and MSC
Description: Multicellular complex tumor spheroid response to DNA repair inhibitors in combination with DNA-damaging drugs This study explores the anticancer activities of DNA-damaging drugs and inhibitors of DNA damage repair, both as single agents and in combinations. […] Twenty-six patient-derived or established malignant cell lines were evaluated representing sarcoma, melanoma, small cell lung cancer (SCLC), non-small cell lung cancer (NSCLC), as well as bladder, ovarian and pancreatic cancers. […]
Overview of reported viability, T/C across a group of molecules:
Give the value, in units of %, as a plain number.

// solved cases for viability, T/C follow
molecule	viability, T/C, %
CC1COCCN1c1cc(-c2ccnn2C)c2ccnc(-c3ccn[nH]3)c2n1 (stereo unspecified) + Cn1nnc2c(C(N)=O)ncn2c1=O	15.8
COc1ccc([C@@H](O)c2cc(-c3ncnc4cc(N5CCOCC5)ccc34)c(F)cc2Cl)nn1 + Cn1nnc2c(C(N)=O)ncn2c1=O	63.2
COc1cc(C)[nH]c(=O)c1CN1CCc2c(Cl)cc(C(OC)C3COC3)c(Cl)c2C1=O (stereo unspecified) + Cn1nnc2c(C(N)=O)ncn2c1=O	71.7
CC(C)n1c(=O)n(C)c2cnc3cc(F)c(-c4ccc(OCCCN5CCCCC5)nc4)cc3c21 + Cn1nnc2c(C(N)=O)ncn2c1=O	70
[2H]c1nc(C)nc([2H])c1-c1cc(NC[C@@H](C)c2cccc3c(C(=O)NC)ccnc23)ncn1 + Cn1nnc2c(C(N)=O)ncn2c1=O	76.2

Let us examine a further case.
INPUT: Request - read-out viability, T/C | tested on SW 982 tumor spheroid viability | molecule Cc1cc(C)c(CNC(=O)c2cc(-c3ccc(CN4CCOCC4)cc3)cc3c2cnn3C2CCCC2)c(=O)[nH]1 + Cn1nnc2c(C(N)=O)ncn2c1=O
OUTPUT: 69

* * *

Test system: SW 982 tumor spheroid viability
testMethodNotes: Anticancer human tumor SW 982 cell line growth inhibition;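 note: spheroids exposed to compound for 7 days before readout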
experimentalSetup: second compound 3.16 µM; first compound 1 µM; stronger effect = lower value; spheroids with HUVEC and MSC
In plain terms, low viability, T/C, meaning strictly below 90%, gives Yes, and everything else gives No.

molecule	className
COc1cc(C)[nH]c(=O)c1CN1CCc2c(Cl)cc(C(OC)C3COC3)c(Cl)c2C1=O (stereo unspecified) + Cn1nnc2c(C(N)=O)ncn2c1=O	No
Cc1cc(C)c(CNC(=O)c2cc(-c3ccc(CN4CCOCC4)cc3)cc3c2cnn3C2CCCC2)c(=O)[nH]1 + Cn1nnc2c(C(N)=O)ncn2c1=O	No
[2H]c1nc(C)nc([2H])c1-c1cc(NC[C@@H](C)c2cccc3c(C(=O)NC)ccnc23)ncn1 + Cn1nnc2c(C(N)=O)ncn2c1=O	Yes

INPUT: Hello, I'm reviewing records and need to know if viability, T/C of COc1ccc([C@@H](O)c2cc(-c3ncnc4cc(N5CCOCC5)ccc34)c(F)cc2Cl)nn1 + Cn1nnc2c(C(N)=O)ncn2c1=O is below 90%. Could you check?
OUTPUT: Yes

INPUT: Now give it for CC1COCCN1c1cc(-c2ccnn2C)c2ccnc(-c3ccn[nH]3)c2n1 (stereo unspecified) + Cn1nnc2c(C(N)=O)ncn2c1=O too.
OUTPUT: Yes

INPUT: Would you mind doing CC(C)n1c(=O)n(C)c2cnc3cc(F)c(-c4ccc(OCCCN5CCCCC5)nc4)cc3c21 + Cn1nnc2c(C(N)=O)ncn2c1=O as well?
OUTPUT: Yes

* * *

Test system: SW 982 tumor spheroid viability
testMethodNotes: Anticancer human tumor SW 982 cell line growth inhibition;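 note: spheroids exposed to compound for 7 days before readout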
experimentalSetup: compound alone; run of 12/02/2019; spheroids with HUVEC and MSC
pIC50: −log10 of the molar value.
measuredAttribute: pIC50

INPUT: For Cn1nnc2c(C(N)=O)ncn2c1=O , what is its reported pIC50?
OUTPUT: < 4.00

* * *

System: SW 982 tumor spheroid viability
testMethodNotes: Anticancer human tumor SW 982 cell line growth inhibition;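 note: spheroids exposed to compound for 7 days before readout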
experimentalSetup: second compound 0.003 µM; first compound 0.03 µM; stronger effect = lower value; spheroids with HUVEC and MSC
measuredAttribute: viability, T/C (%)
Enter your answer as a number in %; do not include the unit.

Worked cases, answers included:
compound	viability, T/C [%]
Cc1sc2c(c1C)C(c1ccc(Cl)cc1)=NC(CC(=O)Nc1ccc(O)cc1)c1nnc(C)n1-2 (stereo unspecified) + COc1cc2c(cc1O)CCNC21CSC2c3c(OC(C)=O)c(C)c4c(c3C(COC1=O)N1C(O)C3Cc5cc(C)c(OC)c(O)c5C(C21)N3C)OCO4	8.8
Cn1ncnc1[C@H]1c2n[nH]c(=O)c3cc(F)cc(c23)N[C@@H]1c1ccc(F)cc1 + COc1cc2c(cc1O)CCNC21CSC2c3c(OC(C)=O)c(C)c4c(c3C(COC1=O)N1C(O)C3Cc5cc(C)c(OC)c(O)c5C(C21)N3C)OCO4	0.45
CNCc1ccc(-c2cc(-c3nc(-c4ccc(S(=O)(=O)C(C)C)cc4)cnc3N)on2)cc1 + CC[C@@]1(O)C(=O)OCc2c1cc1n(c2=O)Cc2cc3c(CN(C)C)c(O)ccc3nc2-1	91
CNCc1ccc(-c2cc(-c3nc(-c4ccc(S(=O)(=O)C(C)C)cc4)cnc3N)on2)cc1 + COc1cc2c(cc1O)CCNC21CSC2c3c(OC(C)=O)c(C)c4c(c3C(COC1=O)N1C(O)C3Cc5cc(C)c(OC)c(O)c5C(C21)N3C)OCO4	1.22
Cc1sc2c(c1C)C(c1ccc(Cl)cc1)=NC(CC(=O)Nc1ccc(O)cc1)c1nnc(C)n1-2 (stereo unspecified) + CC[C@@]1(O)C(=O)OCc2c1cc1n(c2=O)Cc2cc3c(CN(C)C)c(O)ccc3nc2-1	110

The record that follows has no viability, T/C shown yet.
INPUT: Entry under review: Cn1ncnc1[C@H]1c2n[nH]c(=O)c3cc(F)cc(c23)N[C@@H]1c1ccc(F)cc1 + CC[C@@]1(O)C(=O)OCc2c1cc1n(c2=O)Cc2cc3c(CN(C)C)c(O)ccc3nc2-1 . Reported viability, T/C?
OUTPUT: 83.8

# credit: PubChem BioAssay AID1845216
